# Experimental target: HIV-1 strain AC10.0.29 envelope (gp120) (HIV-1)
# Method: cell-based or functional assay
Observation type: neutralization IC50 (µg/mL)

Binder	Observation type	Measured number
3BNC60 IgG (antibody, V domains shown) VH: QVHLSQSGAAVTKPGASVRVSCEASGYKISDHFIHWWRQAPGQGLQWVGWINPKTGQPNNPRQFQGRVSLTRQASWDFDTYSFYMDLKAVRSDDTAIYFCARQRSDFWDFDVWGSGTQVTVSS VL: DIQMTQSPSSLSARVGDTVTITCQANGYLNWYQQRRGKAPKLLIYDGSKLERGVPARFSGRRWGQEYNLTINNLQPEDVATYFCQVYEFIVPGTRLDLKRTVA	neutralization IC50	13
